# Test system: Human immunodeficiency virus 1
# Assay details: Antiviral activity against NRTI/NNRTI-resistant HIV1 L6 harboring reverse transcriptase V75I/F77L/K103N/F116Y/Q151M/M184V mutant infected in human MT4 cells
# Type: functional, organism-based
# Study conditions: Human immunodeficiency virus 1, L6, MT4
Observable: EC50 (µM)

* CC[C@H](C)[C@H](NC(=O)c1ccccc1[Se][Se]c1ccccc1C(=O)N[C@H](C(=O)O)[C@@H](C)CC)C(=O)O | 25.9
* O=C(O)CNC(=O)c1ccccc1[Se][Se]c1ccccc1C(=O)NCC(=O)O | 3.44
* O=C(O)CC[C@H](NC(=O)c1ccccc1[Se][Se]c1ccccc1C(=O)N[C@@H](CCC(=O)O)C(=O)O)C(=O)O | 6.59
